Molecular target: T1, MBP-Orf W137A (Bacteriophage lambda, UniProt P03765 1-146, W137A)
T1 sequence: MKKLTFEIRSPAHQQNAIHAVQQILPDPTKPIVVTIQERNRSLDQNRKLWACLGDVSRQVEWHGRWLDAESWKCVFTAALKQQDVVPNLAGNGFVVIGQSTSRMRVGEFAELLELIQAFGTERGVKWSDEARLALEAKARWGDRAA
Experiment: fluorescence anisotropy; apparent, per dimer; EMSA: 50 mM Tris-HCl pH 8.0, 5 mM EDTA (or 1 mM MgCl2), 1 mM DTT, 5% glycerol, 100 ug/ml BSA, on ice 15 min, 4% PAGE; anisotropy: 100 mM Tris-HCl pH 7.0, 10 nM
Conditions: protein: recombinant; tags: N-terminal MBP; chain copies: 2; label: 3'-fluorescein; single strand
pKd: −log10 of the molar value.
experimentalReadout: pKd

>>> print(df.to_string())
                                     binder  measurement
0  SS60-fluorescein (ssDNA) DNA: TTTGGTCTAACTTTACCGCTACTAAATGCCGCGGATTGGTTTCGCTGAATCAGGTTATTA         6.20
